biological target: HCV NS3 protease domain (Hepatitis C virus genotype 1b, UniProt Q9WMX2); construct: The first 181 amino acids of NS3 (residues 1027-1207 of the viral polyprotein); hexa-histidine (C); made in house; host or cells: E. coli BL21/DE3 pLysS; experiment: biochemical; details: Enzyme Assay 1 (HCV NS3 Protease Domain Peptide Cleavage Assay) activity, apparent Ki class
Sequence (Q9WMX2 1027-1207, other chains not shown): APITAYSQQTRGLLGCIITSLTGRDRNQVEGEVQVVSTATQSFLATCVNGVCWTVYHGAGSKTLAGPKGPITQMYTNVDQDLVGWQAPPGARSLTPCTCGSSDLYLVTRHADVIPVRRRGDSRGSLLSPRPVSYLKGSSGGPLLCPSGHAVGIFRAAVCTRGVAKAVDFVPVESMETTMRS
pKi: −log10 of the molar value.
readout.name: pKi

Recorded results for 2 molecules are shown here.
{"columns": ["molecule", "pKi"],
 "data": [
  ["CCC[C@H](NC(=O)[C@@H]1C[C@]2(CC(c3cccc(Cl)c3)=NO2)CN1C(=O)[C@@H](NC(=O)OCc1ccccn1)C(C)(C)C)C(=O)C(=O)NC1CC1 [Compound 378]", "6.30 to 7.00"],
  ["CCC[C@H](NC(=O)[C@@H]1C[C@]2(CC(c3cccc(Cl)c3)=NO2)CN1C(=O)[C@@H](NC(=O)CC1CCCCC1)C(C)(C)C)C(=O)C(=O)NCCc1c[nH]c2ccc(OC)cc12 [Compound 302]", "6.30 to 7.00"]
]}

Form field: reported pKi of CCC[C@H](NC(=O)[C@@H]1C[C@]2(CC(c3ccc(Cl)s3)=NO2)CN1C(=O)[C@@H](NC(=O)CC1CCCCC1)C(C)(C)C)C(=O)C(=O)NC1CC1 [Compound 478] 6.30 to 7.00

----------
Each entry below lists one item and its recorded Ki value.
molecular target: HCV NS3 protease domain (Hepatitis C virus genotype 1b); construct: The first 181 amino acids of NS3 (residues 1027-1207 of the viral polyprotein); hexa-histidine (C); made in house; host or cells: E. coli BL21/DE3 pLysS; experiment: biochemical; conditions: Enzyme Assay 1 (HCV NS3 Protease Domain Peptide Cleavage Assay) activity, apparent Ki class

Field: example entries. Status: answers known.
{"columns": ["compound", "Ki"],
 "data": [
  ["C=C[C@@H]1C[C@]1(NC(=O)[C@@H]1C[C@]2(CC(c3cccc(Cl)c3)=NO2)CN1C(=O)[C@@H](NC(=O)CC1CCCCC1)C(C)(C)C)C(=O)NS(=O)(=O)NC1CC1 [Compound 115]", "> 500 nM"],
  ["CCC[C@H](NC(=O)[C@@H]1C[C@]2(CC(c3cccc(Cl)c3)=NO2)CN1C(=O)[C@@H](NC(=O)OCc1ccc(C)cc1)C(C)(C)C)C(=O)C(=O)NC1CC1 [Compound 471]", "100 to 500 nM"],
  ["CCC[C@H](NC(=O)[C@@H]1C[C@]2(CC(c3cccc(Cl)c3)=NO2)CN1C(=O)[C@@H](NC(=O)OCC1CCCC1)C(C)(C)C)C(=O)C(=O)NC1CC1 [Compound 14]", "> 500 nM"],
  ["CCC[C@H](NC(=O)[C@@H]1C[C@]2(CC(c3cc(F)c(F)c(F)c3)=NO2)CN1C(=O)[C@@H](NC(=O)O[C@H]1CCOC1)C(C)(C)C)C(=O)C(=O)NC1CC1 [Compound 215]", "100 to 500 nM"]
]}

Please turn your attention to the following entry.
Form field: reported Ki of CCC[C@H](NC(=O)[C@@H]1C[C@]2(CC(c3cccc(Cl)c3)=NO2)CN1C(=O)[C@@H](NC(=O)[C@H]1CC[C@H](OC)CC1)C(C)(C)C)C(=O)C(=O)NC1CC1 [Compound 503] 100 to 500 nM

Data origin, for the record: patent US7964624B1
